- protocol.description: Growth inhibition of human H1299 cells after 48 hrs
- Assay type: functional
- settings: NCI-H1299, 48 h
Would you mind telling me the reported log10(GI50) of each entry?
Please note: log10 values; quantity GI50; unit nM.

Ask: Given the compound COc1cc(C2C(C#N)=C(N)Oc3c2ccc2cc[nH]c32)cc(Br)c1OC (centres undefined) , what is its reported log10(GI50)?
Reply: 0.78

Ask: Try the compound COc1cc(C2C(C#N)=C(N)Oc3c2ccc(N)c3N)cc(Br)c1OC (centres undefined)
Reply: 1.49

Ask: What about COc1cc(C2C(C#N)=C(N)Oc3c2ccc2[nH]ccc32)cc(Br)c1OC (centres undefined) ?
Reply: 1.28

Ask: Same question for COc1cc(C2C(C#N)=C(N)Oc3c2ccc2[nH]c(C)cc32)cc(Br)c1OC (centres undefined) please.
Reply: 2.15

Ask: Same read-out for Cc1cncc(C2C(C#N)=C(N)Oc3c2ccc2[nH]ccc32)c1 (centres undefined) ?
Reply: 2.00

Ask: # repeat for COc1cc(C2C(C#N)=C(N)Oc3c2ccc2cnccc32)cc(Br)c1OC (centres undefined)
Reply: 1.85

Ask: Same again, this time with COc1cc(C2C(C#N)=C(N)Oc3c2ccc2cc[nH]c32)cc(Br)c1O (centres undefined)
Reply: 1.85

Ask: How about COc1cc(C2C(C#N)=C(N)Oc3c2ccc2nccnc32)cc(Br)c1OC (centres undefined) ?
Reply: 2.74

Ask: How about this compound: COc1cc(C2C(C#N)=C(N)Oc3c2ccc2[nH]ccc32)cc(Br)c1O (centres undefined)
Reply: 1.85
